- experimental_protocol: Microsome stability assay, human liver microsomes
- Type: in vitro ADME
- stated_conditions: human, human liver microsomes, pooled; 1 μM compound, 0.5 mg/mL microsomal protein, NADPH, 37° C.; read-out: Microsome Stability Human liver microsomes Cl
quantity_name: log10 of microsomal CLint at 1 h, 1 µM (log10 of the value in µL/min/mg)
All values: base-10 log of microsomal CLint at 1 h, 1 µM in µL/min/mg.

Look at this molecule and give its reported log10 of microsomal CLint at 1 h, 1 µM. "O=C(NC1c2ccccc2Oc2ccccc21)c1ccc(C(F)(F)F)[nH]c1=O" 2.25

Please report the recorded log10 of microsomal CLint at 1 h, 1 µM for CCC1CCc2cc(O)ccc2C1NC(=O)c1ccc(C(F)(F)F)[nH]c1=O (centres unmarked) . 0.99

What value of measured log10 of microsomal CLint at 1 h, 1 µM is listed for CCCC1=Cc2cc(C)ccc2C1NC(=O)c1ccc(C(F)(F)F)[nH]c1=O (centres unmarked) ? 2.12

Dear colleague, I am looking for the recorded log10 of microsomal CLint at 1 h, 1 µM of the following molecule: "Cc1ccc(CNC(=O)c2ccc(C(F)(F)F)[nH]c2=O)cc1" 2.62

Give its log10 of microsomal CLint at 1 h, 1 µM value. Item: CCCC1Cc2ccc(C)cc2C1NC(=O)c1ccc(C(F)(F)F)[nH]c1=O (centres unmarked) 1.74

Need log10 of microsomal CLint at 1 h, 1 µM, item Cc1ccc(C(CC2CC2)NC(=O)c2ccc(C(F)(F)F)[nH]c2=O)cc1 (centres unmarked) 2.67

log10 of microsomal CLint at 1 h, 1 µM lookup needed for Cc1ccc(C(NC(=O)c2ccc(C(F)(F)F)[nH]c2=O)c2ccccc2)cc1 (centres unmarked) , thanks. 2.71

Any idea what its log10 of microsomal CLint at 1 h, 1 µM is? The molecule is O=C(NC(c1ccccc1)c1cccc(O)c1)c1ccc(C(F)(F)F)[nH]c1=O (centres unmarked) 1.52

====

- target_entity: HSD17B13 (Homo sapiens (Human), UniProt Q7Z5P4)
- Sequence (Q7Z5P4 other isoform, or with tags, fused parts or gaps): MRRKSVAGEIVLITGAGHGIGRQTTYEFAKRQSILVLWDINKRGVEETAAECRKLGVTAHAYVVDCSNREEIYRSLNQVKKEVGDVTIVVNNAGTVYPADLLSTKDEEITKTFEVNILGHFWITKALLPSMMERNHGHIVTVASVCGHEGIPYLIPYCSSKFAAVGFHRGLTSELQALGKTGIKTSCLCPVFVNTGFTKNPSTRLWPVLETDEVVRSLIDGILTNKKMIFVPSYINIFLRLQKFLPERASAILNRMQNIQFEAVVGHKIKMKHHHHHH
- experimental_protocol: HSD17B13 enzymatic inhibition assay (150 nM or 50 nM HSD17B13)
- Type: biochemical
- stated_conditions: 50 nM HSD17B13; read-out: Inhibition of 50 nM of HSD17B13 IC50
Cut-off 800 nM on IC50: below means 1 (yes), at or above means 0 (no).

Would you kindly verify if IC50 of COc1ccc2c(c1)Sc1ccccc1C2NC(=O)c1ccc(C(F)F)[nH]c1=O (centres unmarked) [Compound 272] is strictly less than 800 nM? 1 (yes)

# TODO verify IC50 < 800 nM strictly for this compound: CC1=C(NC(=O)c2ccc(C(F)(F)F)[nH]c2=O)c2ccccc2C1=O [Compound 343] 0 (no)

Answer whether the compound COC1CCc2cc(C)ccc2C1NC(=O)c1ccc(C(F)(F)F)[nH]c1=O (centres unmarked) [Compound 350] has IC50 strictly less than 800 nM 1 (yes)

Say whether its IC50 is strictly beneath 800 nM. Entry: O=C(NC1c2ccccc2Oc2ccc(C3CNC3)cc21)c1ccc(C(F)(F)F)[nH]c1=O (centres unmarked) [Compound 481] 0 (no)

Hi there! Is IC50 for COc1ccc2c(c1)Oc1cccnc1C2NC(=O)c1ccc(C(F)(F)F)[nH]c1=O (centres unmarked) [Compound 322] below 800 nM, do you know? 1 (yes)

Lab log: compare recorded IC50 with 800 nM; is it strictly lower for O=C(NC1c2ccccc2Oc2cc(Cl)ccc21)c1ccc(C(F)(F)F)[nH]c1=O (centres unmarked) [Compound 15A] ? 1 (yes)

Identify whether the compound O=C(NC(c1ccccc1)c1ccc2c(c1)CCC2)c1ccc(C(F)(F)F)[nH]c1=O (centres unmarked) [Compound 90] records IC50 below 800 nM. 1 (yes)

====

- target_entity: HSD17B13 (Homo sapiens (Human), UniProt Q7Z5P4)
- experimental_protocol: HSD17B13 enzymatic inhibition assay (150 nM or 50 nM HSD17B13)
- Format: biochemical
- stated_conditions: 50 nM HSD17B13; read-out: Inhibition of 50 nM of HSD17B13 IC50
quantity_name: pIC50
Scale: pIC50 equals -log10([C]), with [C] in mol/L.

Item Cc1ccc2c(c1)C(NC(=O)c1ccc(C(F)(F)F)[nH]c1=O)CC(C)S2 (centres unmarked) [Compound 386] with HSD17B13 (Homo sapiens (Human), UniProt Q7Z5P4) - pIC50? 6.77

Record Cc1ccc2c(c1)Oc1cc(C)ccc1C2NC(=O)c1cnc(C(F)(F)F)[nH]c1=O [Compound 194] : what is its pIC50 with HSD17B13 (Homo sapiens (Human), UniProt Q7Z5P4)? 7.05

GET /values?readout=pIC50&system=HSD17B13 (Homo sapiens (Human), UniProt Q7Z5P4)&item= Cc1cccc(NC(=O)c2ccc(C(F)(F)F)[nH]c2=O)c1 [Compound 226] 5.09

Value wanted: pIC50 (HSD17B13 (Homo sapiens (Human), UniProt Q7Z5P4)) of entry C=CCc1cccc2c1CCCC2NC(=O)c1ccc(C(F)(F)F)[nH]c1=O (centres unmarked) [Compound 532] 5.28

Notebook: pull reported pIC50 for HSD17B13 (Homo sapiens (Human), UniProt Q7Z5P4), entry Cc1cc(C(F)(F)F)[nH]c(=O)c1C(=O)NC1c2ccccc2-c2ccccc21 [Compound 213] 5.65

State its pIC50 on HSD17B13 (Homo sapiens (Human), UniProt Q7Z5P4): C=Cc1cc(C(=O)NC2c3ccc(C)cc3Oc3cccc(C)c32)c(=O)[nH]c1C(F)(F)F (centres unmarked) [Compound 168] 6.48

Provide value of pIC50 for this record tested with HSD17B13 (Homo sapiens (Human), UniProt Q7Z5P4): O=C(N[C@@H]1C[C@@H](CCO)Cc2ccccc21)c1ccc(C(F)(F)F)[nH]c1=O [Compound 263] 5.07

Tell me reported pIC50 for O=C(NC(c1ccccc1)c1ccc(O)cc1)c1ccc(C(F)(F)F)[nH]c1=O (centres unmarked) [Compound 19] , tested with HSD17B13 (Homo sapiens (Human), UniProt Q7Z5P4). 5.72

API: value(readout= pIC50, system= HSD17B13 (Homo sapiens (Human), UniProt Q7Z5P4), query= O=C(NC(c1ccccc1)c1cccc(O)c1)c1ccc(C(F)(F)F)[nH]c1=O (centres unmarked) [Compound 18] ) 5.61

Param readout= pIC50; system= HSD17B13 (Homo sapiens (Human), UniProt Q7Z5P4); entry= O=C(NC(c1ccccc1)c1ccc(C2=CCCCC2)cc1)c1ccc(C(F)(F)F)[nH]c1=O (centres unmarked) [Compound 32] ; returns value. 6.40

Item O=C(NC(c1ccc(CC(F)(F)F)cc1)c1ccc(CC(F)(F)F)cc1)c1ccc(C(F)(F)F)[nH]c1=O [Compound 23A] with HSD17B13 (Homo sapiens (Human), UniProt Q7Z5P4) - pIC50? 6.00

Write down the reported pIC50 of COc1ccc2c(c1)Sc1cnccc1C2NC(=O)c1ccc(C(F)(F)F)[nH]c1=O (centres unmarked) [Compound 323] , test system: HSD17B13 (Homo sapiens (Human), UniProt Q7Z5P4). 6.66

For HSD17B13 (Homo sapiens (Human), UniProt Q7Z5P4), provide pIC50 of O=C(NC1CCCc2c(/C=C/c3ccccc3)cccc21)c1ccc(C(F)(F)F)[nH]c1=O (centres unmarked) [Compound 548] please. 5.03

Test system HSD17B13 (Homo sapiens (Human), UniProt Q7Z5P4); read-out pIC50; what value for COc1ccc2c(c1)CCC(C)C2NC(=O)c1ccc(C(F)(F)F)[nH]c1=O (centres unmarked) [Compound 292] ? 6.66

Record Cc1ccc2c(c1)C(NC(=O)c1ccc(C(F)(F)F)[nH]c1=O)c1cc(C)ccc1O2 [Compound 158] : what is its pIC50 with HSD17B13 (Homo sapiens (Human), UniProt Q7Z5P4)? 6.44

====

- experimental_protocol: Microsome stability assay, mouse liver microsomes
- Format: in vitro ADME
- stated_conditions: 60 min; 1 μM compound, 0.5 mg/mL microsomal protein
What Microsome Stability Mouse liver microsomes % Remaining @60 min was measured for each of the following?
// units = %; emit number, no label

Please give the measured Microsome Stability Mouse liver microsomes % Remaining @60 min for this molecule: "O=C(Nc1cccc2c(O)cccc12)c1ccc(C(F)(F)F)[nH]c1=O" 83.80

# Microsome Stability Mouse liver microsomes % Remaining @60 min lookup, item CCCC1CCc2cc(C)ccc2C1NC(=O)c1ccc(C(F)(F)F)[nH]c1=O (centres unmarked) 11.20

Query (molecule): "Nc1cccc2c(NC(=O)c3ccc(C(F)(F)F)[nH]c3=O)cccc12" ; field requested: Microsome Stability Mouse liver microsomes % Remaining @60 min 76.60

Query: Microsome Stability Mouse liver microsomes % Remaining @60 min; subject: "COc1ccc2c(c1)Sc1cc(OC)ccc1C2NC(=O)c1ccc(C(F)(F)F)[nH]c1=O" 64

Requested field: Microsome Stability Mouse liver microsomes % Remaining @60 min. Item: Nc1cccc2c1CCCC2NC(=O)c1ccc(C(F)(F)F)[nH]c1=O (centres unmarked) 90.20

I'd like to know its Microsome Stability Mouse liver microsomes % Remaining @60 min. The molecule in question is COc1ccc2c(c1)CC(OC)C2NC(=O)c1ccc(C(F)(F)F)[nH]c1=O (centres unmarked) 88.70

Dear colleague, I am looking for the recorded Microsome Stability Mouse liver microsomes % Remaining @60 min of the following molecule: Cc1ccc2c(c1)OCCC2NC(=O)c1ccc(C(F)(F)F)[nH]c1=O (centres unmarked) 74

Which Microsome Stability Mouse liver microsomes % Remaining @60 min value belongs to CCCC1CCc2cc(OC)ccc2C1NC(=O)c1ccc(C(F)(F)F)[nH]c1=O (centres unmarked) ? 22.70
